Origin of values: ChEMBL document CHEMBL3352073

Entries and their measured IC50 follow.
# System: MCF7
# test_method_notes: Anticancer activity against human MCF7 cells after 24 hrs by MTT assay
# Assay type: functional, cell-based
# stated_conditions: MCF7, 24 h

Check out these entries, answers already filled in.
C=C[C@@]1(C)CC(=O)[C@@]23O[C@@H](/C=C/c4ccccc4)O[C@H]4CCC(C)(C)[C@H]([C@H](O)[C@H](OC(C)=O)[C@@]2(C)O1)[C@]43C: > 100 µg/mL
C=C[C@@]1(C)CC(=O)[C@@]23O[C@@H](c4cccs4)O[C@H]4CCC(C)(C)[C@H]([C@H](O)[C@H](OC(C)=O)[C@@]2(C)O1)[C@]43C: > 100 µg/mL

Challenge: For the compound C=C[C@@]1(C)CC(=O)[C@@]23O[C@@H](c4ccco4)O[C@H]4CCC(C)(C)[C@H]([C@H](O)[C@H](OC(C)=O)[C@@]2(C)O1)[C@]43C , give its reported IC50.
Response given: > 100 µg/mL
